Values were extracted from ChEMBL document CHEMBL3259753.

assay: Selectivity index, ratio of CC50 for human HepG2.2.15 cells to IC50 for HBV infected in human HepG2.2.15 cells assessed as inhibition of DNA replication; type: functional
parameter_measured: Ratio CC50/IC50
Output spec: single numeric token, no unit.

Examples with answers:
>  <compound_structure>
C=C1CC[C@@H]2[C@](C)(COC(=O)c3cccnc3)[C@H](O)CC[C@@]2(C)[C@@H]1C/C=C1\C=COC1=O

>  <Ratio CC50/IC50>
126

$$$$
>  <compound_structure>
C=C1CC[C@@H]2[C@](C)(COC(=O)c3cc(=O)c4ccccc4o3)[C@H](O)CC[C@@]2(C)[C@@H]1/C=C/C1=CCOC1=O

>  <Ratio CC50/IC50>
4.7

$$$$
>  <compound_structure>
C=C1CC[C@@H]2[C@](C)(COC(=O)c3cccs3)[C@H](O)CC[C@@]2(C)[C@@H]1C/C=C1\C=COC1=O

>  <Ratio CC50/IC50>
104.9

$$$$
>  <compound_structure>
C=C1CC[C@@H]2[C@](C)(CO)[C@H](O)CC[C@@]2(C)[C@@H]1/C=C/C1=CC(CO)(CO)OC1=O

>  <Ratio CC50/IC50>
6.2

$$$$
>  <compound_structure>
C=C1CC[C@@H]2[C@](C)(COC(=O)CCCC)[C@H](O)CC[C@@]2(C)[C@@H]1C/C=C1\C=COC1=O

>  <Ratio CC50/IC50>
3.2

$$$$
>  <compound_structure>
C=C1CC[C@@H]2[C@](C)(CO)[C@H](OC(=O)CCCC)CC[C@@]2(C)[C@@H]1C/C=C1\C=COC1=O

>  <Ratio CC50/IC50>
1.82

$$$$
>  <compound_structure>
C=C1CC[C@@H]2[C@](C)(CO)[C@H](OC(=O)c3cccs3)CC[C@@]2(C)[C@@H]1C/C=C1\C=COC1=O

>  <Ratio CC50/IC50>
31.8

$$$$
>  <compound_structure>
C=C1CC[C@@H]2[C@](C)(COC(C)=O)[C@H](OC(C)=O)CC[C@@]2(C)[C@@H]1C/C=C1\C=COC1=O

>  <Ratio CC50/IC50>
7.6

$$$$

Please find the next compound below.
The compound identified as `C=C1CC[C@@H]2[C@](C)(CO)[C@H](O)CC[C@@]2(C)[C@@H]1C/C=C(/C(=O)O)[C@H](O)CO` registered its Ratio CC50/IC50 at 7.8
